Data provenance is paper PMC2360237.

# measurement protocol: Docetaxel plasma pharmacokinetics (LC-MS/MS, non-compartmental) alone and with pertuzumab in phase Ib patients
# Format: in vivo, human
# settings: human, plasma, intravenous, Cohort 3A, docetaxel 100 mg m^−2 + pertuzumab 420 mg, cycle 2, n=4, plasma; read-out: AUC0-∞ mean (range)
measure name: AUC(0-inf) (ng·h/mL)

{"mol smiles": "CC(=O)O[C@@]12CO[C@@H]1C[C@H](O)[C@@]1(C)C(=O)[C@H](O)C3=C(C)[C@@H](OC(=O)[C@H](O)[C@@H](NC(=O)OC(C)(C)C)c4ccccc4)C[C@@](O)([C@@H](OC(=O)c4ccccc4)[C@H]21)C3(C)C", "test value": 5220}

----------
# measurement protocol: Docetaxel plasma pharmacokinetics (LC-MS/MS, non-compartmental) alone and with pertuzumab in phase Ib patients
# Assay type: in vivo, human
# settings: human, plasma, intravenous, Cohort 1, docetaxel 60 mg m^−2 + pertuzumab 1050 mg, cycle 2, n=6, plasma; read-out: Cmax mean (range)

{"mol smiles": "CC(=O)O[C@@]12CO[C@@H]1C[C@H](O)[C@@]1(C)C(=O)[C@H](O)C3=C(C)[C@@H](OC(=O)[C@H](O)[C@@H](NC(=O)OC(C)(C)C)c4ccccc4)C[C@@](O)([C@@H](OC(=O)c4ccccc4)[C@H]21)C3(C)C", "Cmax": "1700 ng/mL"}

----------
# measurement protocol: Docetaxel plasma pharmacokinetics (LC-MS/MS, non-compartmental) alone and with pertuzumab in phase Ib patients
# Assay type: in vivo, human
# settings: human, plasma, intravenous, 60 mg m^−2, Cohort 1, docetaxel 60 mg m^−2 alone, cycle 1, n=6, plasma; read-out: t1/2 mean (range) (converted)
measure name: half-life (h)

{"molecule": "CC(=O)O[C@@]12CO[C@@H]1C[C@H](O)[C@@]1(C)C(=O)[C@H](O)C3=C(C)[C@@H](OC(=O)[C@H](O)[C@@H](NC(=O)OC(C)(C)C)c4ccccc4)C[C@@](O)([C@@H](OC(=O)c4ccccc4)[C@H]21)C3(C)C [docetaxel, Docetaxel]", "unit text": "h", "test value": 16.9}

----------
# measurement protocol: Docetaxel plasma pharmacokinetics (LC-MS/MS, non-compartmental) alone and with pertuzumab in phase Ib patients
# Format: in vivo, human
# settings: human, plasma, intravenous, 75 mg, Cohort 2A, docetaxel 75 mg m^−2 alone, cycle 1, n=6, plasma; read-out: Cmax mean (range)

{"mol smiles": "CC(=O)O[C@@]12CO[C@@H]1C[C@H](O)[C@@]1(C)C(=O)[C@H](O)C3=C(C)[C@@H](OC(=O)[C@H](O)[C@@H](NC(=O)OC(C)(C)C)c4ccccc4)C[C@@](O)([C@@H](OC(=O)c4ccccc4)[C@H]21)C3(C)C", "unit text": "ng/mL", "Cmax": 3130}

----------
# measurement protocol: Docetaxel plasma pharmacokinetics (LC-MS/MS, non-compartmental) alone and with pertuzumab in phase Ib patients
# Type: in vivo, human
# settings: human, plasma, intravenous, Cohort 1, docetaxel 60 mg m^−2 + pertuzumab 1050 mg, cycle 2, n=6, plasma; read-out: AUC0-∞ mean (range)

{"compound": "CC(=O)O[C@@]12CO[C@@H]1C[C@H](O)[C@@]1(C)C(=O)[C@H](O)C3=C(C)[C@@H](OC(=O)[C@H](O)[C@@H](NC(=O)OC(C)(C)C)c4ccccc4)C[C@@](O)([C@@H](OC(=O)c4ccccc4)[C@H]21)C3(C)C [docetaxel, Docetaxel]", "AUC(0-inf) [ng·h/mL]": 1730}

----------
# measurement protocol: Docetaxel plasma pharmacokinetics (LC-MS/MS, non-compartmental) alone and with pertuzumab in phase Ib patients
# Type: in vivo, human
# settings: human, plasma, intravenous, 75 mg, Cohort 2A, docetaxel 75 mg m^−2 alone, cycle 1, n=6, plasma; read-out: t1/2 mean (range) (converted)

{"compound": "CC(=O)O[C@@]12CO[C@@H]1C[C@H](O)[C@@]1(C)C(=O)[C@H](O)C3=C(C)[C@@H](OC(=O)[C@H](O)[C@@H](NC(=O)OC(C)(C)C)c4ccccc4)C[C@@](O)([C@@H](OC(=O)c4ccccc4)[C@H]21)C3(C)C [docetaxel, Docetaxel]", "half-life, h": 12.7}

----------
# measurement protocol: Docetaxel plasma pharmacokinetics (LC-MS/MS, non-compartmental) alone and with pertuzumab in phase Ib patients
# Assay type: in vivo, human
# settings: human, plasma, intravenous, 60 mg m^−2, Cohort 1, docetaxel 60 mg m^−2 alone, cycle 1, n=6, plasma; read-out: Cmax mean (range)

{"mol smiles": "CC(=O)O[C@@]12CO[C@@H]1C[C@H](O)[C@@]1(C)C(=O)[C@H](O)C3=C(C)[C@@H](OC(=O)[C@H](O)[C@@H](NC(=O)OC(C)(C)C)c4ccccc4)C[C@@](O)([C@@H](OC(=O)c4ccccc4)[C@H]21)C3(C)C", "Cmax (ng/mL)": 1640}

----------
# measurement protocol: Docetaxel plasma pharmacokinetics (LC-MS/MS, non-compartmental) alone and with pertuzumab in phase Ib patients
# Type: in vivo, human
# settings: human, plasma, intravenous, Cohort 1, docetaxel 60 mg m^−2 + pertuzumab 1050 mg, cycle 2, n=6, plasma; read-out: t1/2 mean (range) (converted)
measure name: half-life (h)

{"mol smiles": "CC(=O)O[C@@]12CO[C@@H]1C[C@H](O)[C@@]1(C)C(=O)[C@H](O)C3=C(C)[C@@H](OC(=O)[C@H](O)[C@@H](NC(=O)OC(C)(C)C)c4ccccc4)C[C@@](O)([C@@H](OC(=O)c4ccccc4)[C@H]21)C3(C)C", "unit text": "h", "test value": 19.7}

----------
# measurement protocol: Docetaxel plasma pharmacokinetics (LC-MS/MS, non-compartmental) alone and with pertuzumab in phase Ib patients
# Assay type: in vivo, human
# settings: human, plasma, intravenous, 75 mg, Cohort 2A, docetaxel 75 mg m^−2 alone, cycle 1, n=6, plasma; read-out: AUC0-∞ mean (range)

{"mol smiles": "CC(=O)O[C@@]12CO[C@@H]1C[C@H](O)[C@@]1(C)C(=O)[C@H](O)C3=C(C)[C@@H](OC(=O)[C@H](O)[C@@H](NC(=O)OC(C)(C)C)c4ccccc4)C[C@@](O)([C@@H](OC(=O)c4ccccc4)[C@H]21)C3(C)C", "AUC(0-inf), ng·h/mL": 3740}

----------
# measurement protocol: Docetaxel plasma pharmacokinetics (LC-MS/MS, non-compartmental) alone and with pertuzumab in phase Ib patients
# Type: in vivo, human
# settings: human, plasma, intravenous, 100 mg, Cohort 3A, docetaxel 100 mg m^−2 alone, cycle 1, n=5, plasma; read-out: Cmax mean (range)

{"molecule": "CC(=O)O[C@@]12CO[C@@H]1C[C@H](O)[C@@]1(C)C(=O)[C@H](O)C3=C(C)[C@@H](OC(=O)[C@H](O)[C@@H](NC(=O)OC(C)(C)C)c4ccccc4)C[C@@](O)([C@@H](OC(=O)c4ccccc4)[C@H]21)C3(C)C [docetaxel, Docetaxel]", "unit text": "ng/mL", "Cmax": 5450}

----------
# measurement protocol: Docetaxel plasma pharmacokinetics (LC-MS/MS, non-compartmental) alone and with pertuzumab in phase Ib patients
# Assay type: in vivo, human
# settings: human, plasma, intravenous, Cohort 3A, docetaxel 100 mg m^−2 + pertuzumab 420 mg, cycle 2, n=4, plasma; read-out: Cmax mean (range)

{"mol smiles": "CC(=O)O[C@@]12CO[C@@H]1C[C@H](O)[C@@]1(C)C(=O)[C@H](O)C3=C(C)[C@@H](OC(=O)[C@H](O)[C@@H](NC(=O)OC(C)(C)C)c4ccccc4)C[C@@](O)([C@@H](OC(=O)c4ccccc4)[C@H]21)C3(C)C", "Cmax / ng/mL": 4700}

----------
# measurement protocol: Docetaxel plasma pharmacokinetics (LC-MS/MS, non-compartmental) alone and with pertuzumab in phase Ib patients
# Format: in vivo, human
# settings: human, plasma, intravenous, Cohort 3A, docetaxel 100 mg m^−2 + pertuzumab 420 mg, cycle 2, n=4, plasma; read-out: t1/2 mean (range) (converted)

{"molecule": "CC(=O)O[C@@]12CO[C@@H]1C[C@H](O)[C@@]1(C)C(=O)[C@H](O)C3=C(C)[C@@H](OC(=O)[C@H](O)[C@@H](NC(=O)OC(C)(C)C)c4ccccc4)C[C@@](O)([C@@H](OC(=O)c4ccccc4)[C@H]21)C3(C)C [docetaxel, Docetaxel]", "half-life [h]": 12.8}

----------
# measurement protocol: Docetaxel plasma pharmacokinetics (LC-MS/MS, non-compartmental) alone and with pertuzumab in phase Ib patients
# Type: in vivo, human
# settings: human, plasma, intravenous, 100 mg, Cohort 3A, docetaxel 100 mg m^−2 alone, cycle 1, n=5, plasma; read-out: AUC0-∞ mean (range)

{"molecule": "CC(=O)O[C@@]12CO[C@@H]1C[C@H](O)[C@@]1(C)C(=O)[C@H](O)C3=C(C)[C@@H](OC(=O)[C@H](O)[C@@H](NC(=O)OC(C)(C)C)c4ccccc4)C[C@@](O)([C@@H](OC(=O)c4ccccc4)[C@H]21)C3(C)C [docetaxel, Docetaxel]", "AUC(0-inf) / ng·h/mL": 5930}
